target: serotoninergic 5-HT6 receptor (Homo sapiens); assay: Binding assay 5-HT6 (h), [3H]LSD, CHO cells; set-up: expressed in transfected cells; host or cells: CHO cells; settings: read-out: 5-HT6
Sequence (P50406 whole entry): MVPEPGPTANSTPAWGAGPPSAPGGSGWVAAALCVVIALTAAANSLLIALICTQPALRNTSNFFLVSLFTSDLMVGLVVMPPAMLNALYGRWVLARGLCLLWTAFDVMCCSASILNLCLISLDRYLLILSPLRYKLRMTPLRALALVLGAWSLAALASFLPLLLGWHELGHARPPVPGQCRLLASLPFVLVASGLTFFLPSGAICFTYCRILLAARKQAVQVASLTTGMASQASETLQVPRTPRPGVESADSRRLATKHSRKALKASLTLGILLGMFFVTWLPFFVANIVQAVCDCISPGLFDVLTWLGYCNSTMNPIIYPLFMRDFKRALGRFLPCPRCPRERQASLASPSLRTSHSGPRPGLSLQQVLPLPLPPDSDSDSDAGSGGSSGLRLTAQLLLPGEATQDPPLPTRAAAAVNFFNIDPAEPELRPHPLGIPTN
Provide the recorded inhibition at 1 µM for the entries that follow.
Quick reminder: number only, in %, skip the unit.

Problem: # query: inhibition at 1 µM of entry O=S(=O)(NCCCN1CCC(c2noc3cc(F)ccc23)CC1)c1ccc(F)c(Cl)c1 [Compound 331]
Result: 97

Problem: Find the recorded inhibition at 1 µM belonging to O=S(=O)(NCCCCN1CCN(c2noc3ccccc23)CC1)c1c[nH]c2ncccc12 [Compound 89] and report it.
Result: 94

Problem: Requested read-out: inhibition at 1 µM. Entry: O=S(=O)(NCCCN1CCC(c2noc3cc(F)ccc23)CC1)c1ccc2ccccc2c1 [Compound 21]
Result: 93

Problem: Report inhibition at 1 µM for O=c1[nH]c2cccc(N3CCN(CCCNS(=O)(=O)c4cccc5ccccc45)CC3)c2[nH]1 [Compound 423] please.
Result: 16

Problem: Could you share which inhibition at 1 µM value was measured for O=S(=O)(NCCCCN1CCC(c2noc3cc(F)ccc23)CC1)c1ccc(Cl)c(Cl)c1 [Compound 297] ?
Result: 87

Problem: GET /values?readout=inhibition at 1 µM&item= O=S(=O)(NCCCCN1CCN(c2nsc3ccccc23)CC1)c1ccc(Cl)cc1 [Compound 227]
Result: 76

Problem: Given the molecule O=S(=O)(NCCCCN1CCN(c2cccc3c2OCCO3)CC1)c1cccc2ccccc12 [Compound 385] , what is its reported inhibition at 1 µM?
Result: 10

Problem: What does the data say about its inhibition at 1 µM? Entry: O=S(=O)(NCCCCN1CCN(c2nsc3ccccc23)CC1)c1ccc(Br)cc1 [Compound 229]
Result: 75

---

System: sigma σ receptor
Experiment: Binding assay σ (non-selective), [3H]DTG, rat cerebral cortex
Details: percent inhibition of control specific binding; compounds tested at 1×10^−6 M
Procedure: The specific ligand binding to the receptors is defined as the difference between the total binding and the nonspecific binding determined in the presence of an excess of so unlabelled ligand. The specific Ligand binding to the receptor is defined as the difference between total and non-specific binding determined in the presence of an excess of unlabelled ligand. The compounds were tested at a concentration of 1×10^−6 M, and scintillation counting was the method of detection of ligand binding.
Returns the class for an entry based on its σ [%]. Class ranges: lower bin (below 60%), middle bin (60% to below 80%), upper bin (80% or more)

Problem: State the class of the molecule shown: "O=S(=O)(NCCN1CCN(c2nsc3ccccc23)CC1)c1ccc2ccccc2c1"
Result: lower bin

Problem: Form field 'band' for "O=S(=O)(NCCCCN1CCN(c2cccc3[nH]ccc23)CC1)c1ccc2cc(Cl)ccc2c1"
Result: upper bin

Problem: Kindly state the category for this molecule: "O=S(=O)(NCCN1CCN(c2nsc3ccccc23)CC1)c1cccc2ccccc12"
Result: lower bin

Problem: Textbook exercise: identify the category of the molecule given here, "O=S(=O)(NCCCN1CCC(c2noc3cc(F)ccc23)CC1)c1cc2cccnc2[nH]1" , according to its measured value.
Result: middle bin

Problem: Entry "COc1cccc(S(=O)(=O)NCCCCN2CCC(c3noc4cc(F)ccc34)CC2)c1" belongs to which category?
Result: upper bin

Problem: Class for "O=S(=O)(NCCCN1CCC(c2noc3cc(F)ccc23)CC1)c1cnc2ccccn12" ?
Result: middle bin

Problem: Looking at "O=S(=O)(NCCCN1CCN(c2nsc3ccccc23)CC1)c1csc2ccccc12" , which class would you pick?
Result: lower bin

Problem: Which category does the recorded σ [%] put "O=S(=O)(NCCCCN1CCC(c2noc3cc(F)ccc23)CC1)c1csc2ccccc12" in?
Result: upper bin

Problem: Place this molecule in its band: "O=S(=O)(NCCCCN1CCN(c2cccc3[nH]ccc23)CC1)c1ccc(F)c(F)c1"
Result: upper bin

Problem: Into which bin does this molecule go? "O=S(=O)(NCCCCN1CCN(c2cccc3[nH]ccc23)CC1)c1cccc(F)c1"
Result: upper bin

Problem: For the record "O=S(=O)(NCCCN1CCN(c2nsc3ccccc23)CC1)c1cccs1" , report the class its σ [%] corresponds to.
Result: lower bin

Problem: Could you place "Cc1c(S(=O)(=O)NCCCCN2CCC(c3noc4cc(F)ccc34)CC2)sc2ccc(F)cc12" in its proper category? Many thanks.
Result: middle bin

Problem: Assign a category based on measured σ [%] for "O=S(=O)(NCCCCN1CCC(c2noc3cc(F)ccc23)CC1)c1ccc(Cl)s1" and give only the class name.
Result: upper bin

Problem: Which bin should I file "O=S(=O)(NCCCCN1CCN(c2noc3ccccc23)CC1)c1c[nH]c2ncccc12" under?
Result: lower bin

Problem: Could you tell me which band "O=S(=O)(NCCCCN1CCN(c2nsc3ccccc23)CC1)c1ccc2ccccc2c1" belongs to?
Result: middle bin

---

target: UniProtKB P08908; test: Binding assay 5-HT1A (h), [3H]8-OH-DPAT, HEK-293 cells; set-up: expressed in transfected cells; host or cells: HEK-293 cells; settings: read-out: 5-HT1A
Sequence (P08908 whole entry): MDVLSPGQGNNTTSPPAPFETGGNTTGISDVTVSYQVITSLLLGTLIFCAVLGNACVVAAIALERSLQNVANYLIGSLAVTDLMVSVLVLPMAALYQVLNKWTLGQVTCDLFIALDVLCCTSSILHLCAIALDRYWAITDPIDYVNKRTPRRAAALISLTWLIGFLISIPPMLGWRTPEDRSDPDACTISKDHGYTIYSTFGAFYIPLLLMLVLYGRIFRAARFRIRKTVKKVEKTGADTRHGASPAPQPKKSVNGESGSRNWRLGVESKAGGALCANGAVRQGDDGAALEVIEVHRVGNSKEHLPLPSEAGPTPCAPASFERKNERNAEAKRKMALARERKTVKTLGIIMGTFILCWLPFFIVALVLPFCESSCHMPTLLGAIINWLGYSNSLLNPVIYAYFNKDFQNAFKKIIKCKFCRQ
Think of 50% as a floor: if inhibition at 1 µM stands on it or above, it is TRUE; beneath it, FALSE.

Problem: Quick check: does "Cc1cc(S(=O)(=O)NCCCN2CCC(c3noc4cc(F)ccc34)CC2)c(C)s1" have inhibition at 1 µM greater than or equal to 50%?
Result: TRUE

Problem: Is inhibition at 1 µM at least 50%? Consider "O=S(=O)(NCCCN1CCC(c2noc3cc(F)ccc23)CC1)c1cccc(F)c1"
Result: FALSE

Problem: Textbook exercise: given the entry "O=S(=O)(NCCCN1CCN(c2cccc3c2OCCO3)CC1)c1cccc2ccccc12" , state whether its inhibition at 1 µM is greater than or equal to 50%.
Result: TRUE

Problem: Is it the case that "O=S(=O)(NCCCCN1CCN(c2cccc3c2OCCO3)CC1)c1ccc2cc(Cl)ccc2c1" has inhibition at 1 µM reaching or exceeding 50%?
Result: TRUE

Problem: I'd appreciate it if you could say whether "Cc1[nH]c2ccc(Cl)cc2c1C1=CCN(CCCNS(=O)(=O)c2cccc3ccccc23)CC1" has inhibition at 1 µM at least equal to 50%.
Result: TRUE

Problem: Does "O=S(=O)(NCCCCN1CCC(c2noc3cc(F)ccc23)CC1)c1ccc(Cl)cc1" have a reported inhibition at 1 µM of at least 50%?
Result: FALSE

Problem: Check if inhibition at 1 µM >= 50% (inclusive). Item: "O=S(=O)(NCCCCN1CCC(c2noc3cc(F)ccc23)CC1)c1cc2ccccc2s1"
Result: TRUE

Problem: Does the compound "O=S(=O)(NCCCCN1CCC(c2noc3cc(F)ccc23)CC1)c1cccc2scnc12" have recorded inhibition at 1 µM that is 50% or more?
Result: TRUE

---

Biological target: UniProt P50406
Experiment: Cellular functional assay, serotoninergic 5-HT6 receptor (agonism/antagonism)
Type: cell-based
Details: read-out: 5-HT6-antag. [%]
Description: The compounds were tested at the concentration of 1×10^−6M. In the Tables ag refers to agonism, and antag to antagonism).
For each of the compounds below, state its inhibition at 1 µM.
Value expressed in %; do not type the unit.

Problem: Param item = "O=S(=O)(NCCCCN1CCN(c2nsc3ccccc23)CC1)c1ccc2ccccc2c1" ; retrieve measured inhibition at 1 µM.
Result: 28

Problem: Look at this compound and give its reported inhibition at 1 µM. "O=S(=O)(NCCCCN1CCN(c2nsc3ccccc23)CC1)c1cccc2ccccc12"
Result: 39

Problem: # lookup: inhibition at 1 µM of "Cc1cccc(S(=O)(=O)NCCN2CCC(c3noc4cc(F)ccc34)CC2)c1"
Result: 6

Problem: Entry under review: "Cc1c(S(=O)(=O)NCCCCN2CCC(c3noc4cc(F)ccc34)CC2)sc2ccc(F)cc12" . Reported inhibition at 1 µM?
Result: 103

Problem: What value of inhibition at 1 µM has been recorded for this entry: "O=S(=O)(NCCN1CCN(c2nsc3ccccc23)CC1)c1cccc2ccccc12"
Result: -4

Problem: What does the record list as inhibition at 1 µM for "O=S(=O)(NCCCCN1CCN(c2noc3ccccc23)CC1)c1ccc2cc(Cl)ccc2c1" ?
Result: 76

Problem: Recorded inhibition at 1 µM for "O=S(=O)(NCCCN1CCC(c2noc3cc(F)ccc23)CC1)c1cccc2ccccc12" , please?
Result: 23

Problem: Param item = "Cc1cccc(S(=O)(=O)NCCCCN2CCN(c3nsc4ccccc34)CC2)c1" ; retrieve measured inhibition at 1 µM.
Result: 22

---

target: dopaminergic D3 receptor (Homo sapiens, UniProt P35462); assay: Cellular functional assay, dopaminergic D3 receptor (agonism/antagonism); assay type: cell-based; conditions: agonist effect, percent of control specific agonist response (300 nM dopamine for control); 1×10^−6 M; D3 (h), CHO cells; read-out: D3-ag [%]
Sequence (P35462 whole entry): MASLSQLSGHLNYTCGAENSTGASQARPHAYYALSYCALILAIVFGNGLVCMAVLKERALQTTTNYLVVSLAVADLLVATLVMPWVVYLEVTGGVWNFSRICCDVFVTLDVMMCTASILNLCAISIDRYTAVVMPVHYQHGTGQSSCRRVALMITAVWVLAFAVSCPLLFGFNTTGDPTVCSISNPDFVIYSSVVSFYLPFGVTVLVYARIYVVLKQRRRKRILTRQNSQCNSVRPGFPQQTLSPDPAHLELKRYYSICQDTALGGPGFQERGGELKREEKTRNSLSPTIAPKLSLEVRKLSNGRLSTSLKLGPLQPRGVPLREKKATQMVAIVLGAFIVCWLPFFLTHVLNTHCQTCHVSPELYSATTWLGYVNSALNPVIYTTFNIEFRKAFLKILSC
I'd appreciate it if you could supply activation at 1 µM values for the items below.
Please give a number only; it is taken to be in %.

Problem: Request the reported activation at 1 µM associated with "O=S(=O)(NCCCCN1CCN(c2cccc3[nH]ccc23)CC1)c1cccc(F)c1"
Result: 59

Problem: Request the reported activation at 1 µM associated with "Cc1cccc(S(=O)(=O)NCCCN2CCN(c3nsc4ccccc34)CC2)c1"
Result: -21

Problem: Please give the measured activation at 1 µM for this compound: "O=c1[nH]c2cccc(N3CCN(CCCNS(=O)(=O)c4ccc5ccccc5c4)CC3)c2[nH]1"
Result: 70

Problem: Quick one: activation at 1 µM for "O=S(=O)(NCCCCN1CCC(c2noc3cc(F)ccc23)CC1)c1cc2ccc(Cl)cc2s1" ?
Result: -30

Problem: If you can, please state the reported activation at 1 µM value of "O=S(=O)(NCCCCN1CCC(c2noc3cc(F)ccc23)CC1)c1ccc2ccccc2c1" .
Result: -27

Problem: Endpoint output: activation at 1 µM of "O=S(=O)(NCCCCN1CCC(c2noc3cc(F)ccc23)CC1)c1ccc2cc(Cl)ccc2c1" . Value?
Result: -23

Problem: Report activation at 1 µM for "N#Cc1cccc(S(=O)(=O)NCCCN2CCC(c3noc4cc(F)ccc34)CC2)c1" please.
Result: -10

Problem: Requested read-out: activation at 1 µM. Entry: "Cc1c(S(=O)(=O)NCCCCN2CCN(c3noc4ccccc34)CC2)sc2ccc(F)cc12"
Result: -10
